Reported growth by item:
- Tested on: HS 578T breast
- test_details: NCI-60 one-dose screen, 48 h (100 = growth as untreated, 0 = no growth, -100 = all killed)
- experimental_parameters: 10 µM
- Method: Growth inhibition of the HS 578T human tumor cell line is measured as a screen for anti-cancer activity. Cells are grown in 96 well plates and exposed to the test compound for 48 hours. Compounds are tested at a single concentration, which is 10^-5 M for most compounds. The reported endpoint is percent growth (GI% or GIPRCNT), where numbers from 0 - 100% represent growth inhibition, and numbers from -100% - 0 represent cell death. For example, a value of 40 represents 60% growth inhibition. […]
About 83,000 compounds went through this panel and 20% of them were active in at least one assay; those are over-represented in the sample as a whole.
Write it as a number; the unit % goes unstated.

# count of solved cases: 4
COc1ccc2c(c1)OC(N)=C(C#N)C2c1cc(OC)c(OC)c(OC)c1 (centres undefined): 25.3
COc1cccc(N=Nc2cccc(OC)c2)c1: 79.8
COc1ccccc1/C=N\N/C(N)=N\N=C\c1ccccc1OC: -14.7
CN1CCc2c(sc3nc4n(-c5ccc(Cl)cc5)cnn4c(=O)c23)C1: 115

[ask] Enter reported growth observed with HS 578T breast for `Nc1c(Br)cc(Br)c2c1[nH]c(=O)c1ccccc12`
[reply] 30.5

[ask] Recall the recorded growth for `CCOC(=O)c1sc2ncnc(Nc3ccc4c(cnn4C(=O)Nc4ccc(C)c(Cl)c4)c3)c2c1C` with HS 578T breast and state it.
[reply] 112

[ask] Identify the measured growth of CCN(CC)CCCC(Nc1c2ccc(Cl)cc2nc2ccc(OC)cc12)c1ccc(F)cc1 (centres undefined) for HS 578T breast.
[reply] 84

[ask] Recall the recorded growth for `CCOC(=O)c1cc(C(=O)c2cc(OC)cc(OC)c2)n2ncc3ccccc3c12` with HS 578T breast and state it.
[reply] 17.8

[ask] Provide the documented growth with HS 578T breast as the system for `COc1cc(N)c2ncccc2c1SC`
[reply] 92.5

[ask] Form: Entry = `OCCn1cccn1` | System = HS 578T breast | growth = ____
[reply] 111

[ask] State its growth on HS 578T breast: `CC(C)C1=C(O)C2=C(C(=O)C1=O)[C@@]1(C)CCCC(C)(C)[C@@H]1CC2`
[reply] 85

[ask] // lookup growth | system=HS 578T breast | key= `O=C1c2ccccc2C(=O)c2c1ccc(C(Br)Br)c2Cl`
[reply] 85.6

[ask] Param readout = growth; param system = HS 578T breast; param query = `COc1ccc(-c2n[nH]nc2-c2cc(OC)c(OC)c(OC)c2)cc1` ; response: value
[reply] 12.2

[ask] Give recorded growth with HS 578T breast for the following molecule: `CN1CCN(CC(=O)Nc2cccc(-n3cc(-c4ccncc4)c(-c4ccc(Cl)c(O)c4)n3)c2)CC1`
[reply] 38.2

[ask] Can you look up growth on HS 578T breast for Cc1ccc(NCCN(C)CC(C)O)c2c(=O)c3ccc(Cl)cc3sc12 (centres undefined) ?
[reply] 58.6

[ask] Give recorded growth with HS 578T breast for the following molecule: `CC(=O)Nc1ccc(S(=O)(=O)N/N=C(\C)c2ccc(C)cc2C)cc1`
[reply] 134

[ask] Fill in the recorded growth for this molecule, with HS 578T breast as test system: `CS(=O)(=O)c1nccc(-c2c(-c3cccc(O)c3)nc3sccn23)n1`
[reply] 93

[ask] Observed growth on HS 578T breast for COc1cccc(C2C(C#N)=C(N)Oc3cc(N)ccc32)c1 (centres undefined) , please.
[reply] 22.1

[ask] Recorded growth for `Oc1cccc(-c2nc3sccn3c2-c2ccncn2)c1` with HS 578T breast, please?
[reply] 81.7

* * *

- System: HOP-62 NSCLC
- test_details: NCI-60 one-dose screen, 48 h
- experimental_parameters: 10 µM
This is part of a sample that, as a whole, favours compounds with a hit. Of some 83,000 tested, about 20% had one in any assay. Activity calls are given as the source filed them. How the source made its calls: active means growth percent below 10; inactive means the rest.
Thanks in advance; please answer with one of these: active, inactive

# count of solved cases: 6
CCCCN(CCCC)C(=O)[C@H](CC)[C@@H]1CC[C@@H](C)[C@@H]([C@H](C)[C@@H](O)[C@@H](C)C(=O)[C@H](CC)C2O[C@]3(C=C[C@@H](O)[C@]4(CC[C@@](C)([C@H]5CC[C@](O)(CC)[C@H](C)O5)O4)O3)[C@H](C)C[C@@H]2C)O1 (stereo partly drawn): active
COc1ccc2c(c1)OC(N)=C(C#N)C2c1cc(OC)c(OC)c(OC)c1 (stereo not drawn): inactive
Cc1cc(=O)n2nnc3cc(C(F)(F)F)ccc3n12: inactive
O=C1/C(=C/c2ccc([N+](=O)[O-])s2)Oc2cc(Cl)ccc21: inactive
O=C(O)Cc1ccc(O)c(O)c1: inactive
Cc1nn(-c2ccccc2)c2nc(Cl)c(C=O)c(-c3ccccc3)c12: inactive

[ask] What call does the record list for `CS(=O)(=O)c1nccc(-c2c(-c3cccc(OCCc4ccccc4)c3)nc3sccn23)n1` ?
[reply] inactive

[ask] Name the outcome recorded for `O=C(NCCCNS(=O)(=O)c1ccc(Cl)cc1)Nc1ccc(-n2cc(-c3ccncc3)c(-c3ccc(Cl)c(O)c3)n2)cc1` in the assay.
[reply] inactive

* * *

- Test system: MOLT-4 leukemia
- test_details: NCI-60 one-dose screen, 48 h
- experimental_parameters: 10 µM
This is part of a sample that, as a whole, favours compounds with a hit. Of some 83,000 tested, about 20% had one in any assay. Activity calls are given as the source filed them. Rule for the calls: active = growth percent below 10; inactive = the rest.
Permitted responses: active, inactive

Cc1ccc(-c2c3c(N)nc(-c4cccnc4)nc3nc3c2c(C)nn3-c2ccccc2)cc1: inactive
c1ccc2c(c1)Cc1ccccc1N2CCN1CCCCC1: inactive

[ask] Which outcome did this test record for the compound CC1OC2CC(=O)OC2C2=C1C(=O)c1c(O)c3c(c(O)c1C2=O)C1CC(O)C3(O)C(C)O1 (centres undefined) ?
[reply] active

[ask] # lookup: test call for `Fc1ccc(C(c2ccc(F)cc2)C(Cl)Cl)cc1`
[reply] inactive

[ask] Hi, do you know how `CCNc1nc(C(F)(F)F)nc2c1sc(=S)n2-c1ccccc1` came out in this test?
[reply] inactive

* * *

- Tested on: UO-31 renal
- test_details: NCI-60 one-dose screen, 48 h (100 = growth as untreated, 0 = no growth, -100 = all killed)
- experimental_parameters: 10 µM
About 83,000 compounds went through this panel and 20% of them were active in at least one assay; those are over-represented in the sample as a whole.
readout: growth (%)
A number alone suffices; assume %.

Answered cases to consult:
COc1ccc(C(=O)CC(CC(=O)c2ccc(OC)cc2)c2c(C)nn(-c3ccccc3)c2Cl)cc1: 72.8
N#Cc1ccc(C(=O)CSc2nccc(Nc3ccc(C(=O)O)cc3)n2)cc1: 84.7
NC(=O)c1cccc(-n2ccc3cc(NC(=O)Nc4ccc(Cl)c(C(F)(F)F)c4)ccc32)n1: 77.3
CN1CCN(CC(=O)Nc2cccc(-n3cc(-c4ccncc4)c(-c4ccc(Cl)c(O)c4)n3)c2)CC1: 50.2
O=C1c2ccccc2C(=O)N1CCCCNc1ccccc1: 61.7

Now look at this entry.
[ask] Value lookup for growth; key = `CN(C)CCOc1cccc(-c2nc3sccn3c2-c2ccnc(S(C)(=O)=O)n2)c1`
[reply] 72.1

* * *

- Test system: OVCAR-3 ovarian
- test_details: NCI-60 one-dose screen, 48 h (100 = growth as untreated, 0 = no growth, -100 = all killed)
- experimental_parameters: 10 µM
The panel holds about 83,000 compounds, 20% with a hit somewhere; the sample as a whole holds those more often.
Here the recorded growth is given for each entry.
Note: unit % is implicit; provide only the numeric part.

Before answering, review these 3 worked examples.
Nc1ccc(-c2cccs2)cc1NC(=O)c1ccc(CCCC(=O)Nc2ccc(C3CC3N)cc2)cc1 (centres undefined): 63
COc1ccccc1/C=N\N/C(N)=N\N=C\c1ccccc1OC: -13.2
O=C1c2ccccc2C(=O)c2c1ccc1c(=O)n(-c3ccccc3C(F)(F)F)nnc21: -17.6

Let us move to another entry and its growth.
[ask] Param readout = growth; param system = OVCAR-3 ovarian; param query = `Cc1ccc(/C=C/C(=O)C(=O)/C=C/c2ccc(C)cc2)cc1` ; response: value
[reply] 112

* * *

- System: MOLT-4 leukemia
- test_details: NCI-60 one-dose screen, 48 h (100 = growth as untreated, 0 = no growth, -100 = all killed)
- experimental_parameters: 10 µM
About 83,000 compounds went through this panel and 20% of them were active in at least one assay; those are over-represented in the sample as a whole.
readout: growth (%)
The reply should contain only the number, in %.

Example entries and their recorded answers appear below.
C[C@]12CCC3c4ccc(O)cc4C[C@@H](CCCCCCCCCS(=O)CCCC(F)(F)C(F)(F)F)C3C1CC[C@@H]2O (some centres undefined): 39.6
COc1cc(/C=C2\CCCC3=C2NC(N)=NC3c2cc(OC)c(OC)c(OC)c2)cc(OC)c1OC (centres undefined): -3.56
CCC1NC(=O)c2cc(S(N)(=O)=O)c(Cl)cc2N1 (centres undefined): 113

Next up:
[ask] Report growth for `COc1ccc2nc3cc(Cl)ccc3c(Nc3cc(CN4CCCC4)c(O)c(CN4CCCC4)c3)c2n1` tested on MOLT-4 leukemia.
[reply] -25.2
